system: Rattus norvegicus; test: Change in systolic arterial blood pressure in renal artery ligated hypertensive rats, orally dosed at 10 mg/kg; type: functional; details: route oral
reported-endpoint: Change in blood pressure (mmHg)
Provide the reading as a plain figure in mmHg.

> print(dat)
                               input.smiles  experimental.system  quantity.unit  endpoint.result
1  CCCc1nc(C)n2nc(NCC(=O)OCC)nc2c1Cc1ccc(-c2ccccc2-c2nn[nH]n2)cc1    Rattus norvegicus           mmHg            -73.6
2  CCCCc1nc(C)n2nc(O)nc2c1Cc1ccc(-c2ccccc2C(=O)O)cc1    Rattus norvegicus           mmHg            -23.5
3  Cc1nc(C2CC2)c(Cc2ccc(-c3ccccc3-c3nn[nH]n3)cc2)c2nc(O)nn12    Rattus norvegicus           mmHg            -51.1

Ask: What value of measured Change in blood pressure is listed for `CCCc1ncn2nc(O)nc2c1Cc1ccc(-c2ccccc2-c2nn[nH]n2)cc1` ?
Result: -38.3

Ask: Bench note: what Change in blood pressure did `CCCc1nc(CC)n2nc(O)nc2c1Cc1ccc(-c2ccccc2-c2nn[nH]n2)cc1` show?
Result: -75.8

###

Biological target: Type-1 angiotensin II receptor B (Rattus norvegicus)
Sequence (P29089 whole entry): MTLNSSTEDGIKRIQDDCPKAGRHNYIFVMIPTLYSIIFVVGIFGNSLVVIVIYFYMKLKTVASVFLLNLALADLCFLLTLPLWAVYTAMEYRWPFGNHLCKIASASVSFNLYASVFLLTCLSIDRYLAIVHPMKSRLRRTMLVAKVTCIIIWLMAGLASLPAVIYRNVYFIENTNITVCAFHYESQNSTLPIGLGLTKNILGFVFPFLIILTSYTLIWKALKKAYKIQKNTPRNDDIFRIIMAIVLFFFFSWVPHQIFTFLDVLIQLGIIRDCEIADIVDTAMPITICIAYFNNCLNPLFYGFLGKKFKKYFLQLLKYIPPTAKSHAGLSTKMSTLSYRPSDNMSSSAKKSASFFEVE
Catalogue of Ki readings, one per entry.
Return type: number; implicit unit nM.

Ask: What does the record list as Ki for `CCCc1nc(CCC)n2nc(O)nc2c1Cc1ccc(-c2ccccc2-c2nn[nH]n2)cc1` ?
Result: 659

Ask: Quick one: Ki of `CCCc1nc(C)n2nc(S(=O)(=O)NC)nc2c1Cc1ccc(-c2ccccc2-c2nn[nH]n2)cc1` ?
Result: 139

Ask: Need Ki of `CCCc1nc(C)n2c(O)nnc2c1Cc1ccc(NC(=O)c2ccccc2S(=O)(=O)O)cc1` , thanks.
Result: 41

Ask: I have this compound here, `CCCc1nc(C)n2nc(NC)nc2c1Cc1ccc(-c2ccccc2-c2nn[nH]n2)cc1` , and I need its recorded Ki.
Result: 5

Ask: Fill in: Ki of `CCCc1nc(C)n2nc(S(N)(=O)=O)nc2c1Cc1ccc(-c2ccccc2-c2nn[nH]n2)cc1` is ___
Result: 11

Ask: // query Ki value for entry `CCCCc1nc(C)n2nc(O)nc2c1Cc1ccc(-c2ccccc2C(=O)O)cc1`
Result: 622

Ask: For `CCCc1nc(C)n2nc(NCC(=O)OCC)nc2c1Cc1ccc(-c2ccccc2-c2nn[nH]n2)cc1` , what is its reported Ki?
Result: 32

Ask: Dear colleague, I am looking for the recorded Ki of the following compound: `CCCc1nc(C)n2nc(S)nc2c1Cc1ccc(-c2ccccc2-c2nn[nH]n2)cc1`
Result: 10

Ask: What does the data say about its Ki? Entry: `CCCc1nc(C)n2c(=O)n(CC(=O)OCC)nc2c1Cc1ccc(-c2ccccc2-c2nn[nH]n2)cc1`
Result: 12
